self-cleavage for assorted variants
B1: LINE1-full (parent)
chain: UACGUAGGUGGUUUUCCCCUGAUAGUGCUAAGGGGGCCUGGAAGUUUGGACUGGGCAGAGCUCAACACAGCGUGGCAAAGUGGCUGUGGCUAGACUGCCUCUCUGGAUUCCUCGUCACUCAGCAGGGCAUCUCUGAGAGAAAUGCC

- Variants of: B1
- experimentDescription: self-cleavage, relative activity (ratio to wild type); higher = more cleavage; in vitro, sequencing; the parent is a self-cleaving ribozyme

{"seqText": "UACGUUGGUGGUUUUCCCCUGAUAGUGCUAAGGGGGCCUGGAGGUUUGGACUGGGCAGAGCUCAACACAGCGUGGCAAAGUGGCUGUGGCUAGACUGCCUCUCUGGAUUCCUCGUCACUCAGCAGGGCAUCUCUGAGAGAAAUGCC [A6U A43G]", "self-cleavage": 1.01}
{"seqText": "UAUGUAGGUGGUUAUCCCCUGAUAGUGCUAAGGGGGCCUGGAAGUUUGGACUGGGCAGAGCUCAACACAGCGUGGCAAAGUGGCUGUGGCUAGACUGCCUCUCUGGAUUCCUCGUCACUCAGCAGGGCAUCUCUGAGAGAAAUGCC [C3U U14A]", "self-cleavage": 0.24}
{"seqText": "UACGUAGGUGGUUUUCUCCUGAUAGUGCCAAGGGGGCCUGGAAGUUUGGACUGGGCAGAGCUCAACACAGCGUGGCAAAGUGGCUGUGGCUAGACUGCCUCUCUGGAUUCCUCGUCACUCAGCAGGGCAUCUCUGAGAGAAAUGCC [C17U U29C]", "self-cleavage": 0.81}
{"seqText": "UACGUAGGUGGUUUUCCCCUGAUAGUGCUAAGGGGGCCUGGAGGUUUGGACUGGGCAGAGCUCAACACAGCGUGGCAAAGUGGCUGUGGCUAGACUGCCUCUCUGGAUUCCCCGUCACUCAGCAGGGCAUCUCUGAGAGAAAUGCC [A43G U112C]", "self-cleavage": 1.2}
{"seqText": "UACGUAGGUGGUUUUCCCCUGAUAGUGCUAAGGGGGCCUGGAAGUUUGGACUGGGCAGAGCUCAACACAGCGAGGCAAAGUAGCUGUGGCUAGACUGCCUCUCUGGAUUCCUCGUCACUCAGCAGGGCAUCUCUGAGAGAAAUGCC [U73A G82A]", "self-cleavage": 1.74}
{"seqText": "UACGUAGGUGGUUUUCCCCUGAUAGUGCUAAGGGGGCCUGGAAGUUUGGACUGGGCAGAGCUCAGCACAGCGUGGCAAAGUGGCUGUGGCUAGACCGCCUCUCUGGAUUCCUCGUCACUCAGCAGGGCAUCUCUGAGAGAAAUGCC [A65G U96C]", "self-cleavage": 0.08}
{"seqText": "UACGUAGGUGGUUUUACCCUGAUAGUGCUAAAGGGGCCUGGAAGUUUGGACUGGGCAGAGCUCAACACAGCGUGGCAAAGUGGCUGUGGCUAGACUGCCUCUCUGGAUUCCUCGUCACUCAGCAGGGCAUCUCUGAGAGAAAUGCC [C16A G32A]", "self-cleavage": 0.77}
{"seqText": "UACGCAGGUGGUUUUCCCCUGAUAGUGCUAAGGGGGCCUGGAAGUUUGGACUGGGCAGAGCUCAACACGGCGUGGCAAAGUGGCUGUGGCUAGACUGCCUCUCUGGAUUCCUCGUCACUCAGCAGGGCAUCUCUGAGAGAAAUGCC [U5C A69G]", "self-cleavage": 0.78}
{"seqText": "UACGUAGGUGGUUUUCCCCUGAUAGUGCUAAGGGGGCCUGGAAGUUUGGACUGGGCAGAGCUCAACACAGCGUGGCAAAGUGGCUGUGGCUAGACUGCCUUUCUGGAUUCCUCGUCACUCAGCAGGGCAUCUCUGAGAGAGAUGCC [C101U A141G]", "self-cleavage": 2}
